Experiment: Soluble peptide degradation, Media condition (cell-conditioned media, LC-MS)
Format: in vitro ADME, human
Conditions: human, cells or culture medium; Figure 3B heatmap; split-and-pool libraries KLVADX1X2ASAE in hUVEC-conditioned media without cells; 24 h; LC-MS, ratio to βFβA6; N = 2; read-out: Fraction of peptide remaining after 24 hours: hUVEC Media
Where a SMILES comes first, the peptide text is derived from it. [ ]: non-standard residue; d: D form. βAla = NCCC(=O)O
Result Type: remaining at 24 h (%)
Answer in %, number only, no unit symbol.

Query :: Item under review: CC(=O)NCCC(=O)N[C@@H](CCCCN)C(=O)N[C@@H](CC(C)C)C(=O)N[C@H](C(=O)N[C@@H](C)C(=O)N[C@@H](CC(=O)O)C(=O)N[C@@H](CC(N)=O)C(=O)N1CCC[C@H]1C(=O)N[C@@H](C)C(=O)N[C@@H](CO)C(=O)N[C@@H](C)C(=O)N[C@@H](CCC(=O)O)C(=O)NCCC(N)=O)C(C)C [Asn-Pro] (Ac-[βAla]KLVADNPASAE[βAla]-NH2) . Reported remaining at 24 h?
Result :: 98
